# Test system: SEM cells
# Assay details: cell viability relative to DMSO control; higher = less cytotoxic
# Stated conditions: RPMI 5 mM glucose + 10% dialyzed FBS; 48 h; 46.1 µM
Experimental endpoint: cell viability (%)
Number only, in %; omit the unit.

// known answers, use as guide
Molecule	Result units	cell viability
CN[C@@H](C)C(=O)N[C@H]1CCCC[C@H]2CC[C@@H](C(=O)N[C@@H](c3ccccc3)c3cn(CCCCc4ccc(CCCCn5cc([C@@H](NC(=O)[C@@H]6CC[C@@H]7CCCC[C@H](NC(=O)[C@H](C)NC)C(=O)N76)c6ccccc6)nn5)cc4)nn3)N2C1=O	%	54.4
Cc1nc2c([nH]1)-c1ccccc1N(C(=O)c1ccc(NC(=O)c3ccccc3-c3ccccc3)cc1)CC2	%	124
CNC(=O)c1c(F)cccc1Nc1nc(Nc2cc3c(cc2OC)CCN3C(=O)CN(C)C)nc2[nH]ccc12	%	0.739
CC(=O)SCC(Cc1ccccc1)C(=O)NCC(=O)OCc1ccccc1 (configuration not stated)	%	96.9
COc1cc(/C=C/C(=O)CC(=O)/C=C/c2ccc(O)c(OC)c2)ccc1O	%	5.02

Indicate the recorded cell viability value for this molecule: CN(C)c1nc(N(C)C)nc(N(C)C)n1
93.1

Give the measured cell viability for CCOC(=O)c1ccc(C#Cc2ccc3c(c2)C(C)(C)CCS3)nc1
93.5

// fetch cell viability given entry CCCn1c(=O)c2[nH]c(-c3cnn(Cc4cccc(C(F)(F)F)c4)c3)nc2n(CC)c1=O
98.4

Consider the molecule CC1OC(OC/2=C(/OC3=C(C(=CC(=C3)O)O)C2=O)C4=CC=C(O)C=C4)C(O)C(OC(C)=O)C1OC(C)=O (configuration not stated) . State its measured cell viability.
77.1

State, in one line, measured cell viability of O=C1c2cccc(O)c2C(=O)c2c(O)cc(CO)cc21
85.3

Please report cell viability for the following molecule: Cc1cnc(Nc2ccc(OCCN3CCCC3)cc2)nc1Nc1cccc([S+](=O)([O-])NC(C)(C)C)c1
71.9

Using the record for CN(C)CCC=C1C2=C(C=CC=C2)\C=C/C3=C1C=CC=C3 , state its measured cell viability.
81.7

Provide measured cell viability value, entry: COc1cc2nc(-c3ccc(N4CCN(C)CC4)cc3)nc(NCCN3CCOCC3)c2cc1OC
2.59

Please give measured cell viability of the following entry: COc1ccc(-c2nc3cc(C4=NNC(=O)CC4C)ccc3[nH]2)cc1 (configuration not stated)
84.4
